Taken from the supplement of paper PMC11451515.

// values below are reported cell viability
- Test system: P12-Ichikawa
- PROTOCOL SUMMARY: cell viability relative to DMSO control; higher = less cytotoxic
- APPLIED CONDITIONS: RPMI 5 mM glucose + 10% FBS; 48 h; 1.71 µM
Number in %, nothing else.

Below, each entry is followed by its recorded cell viability result.
# MOLECULE, MEASURED ON, cell viability, %
rows = [
    ("CC[C@]12CC[C@H]3[C@@H](CCC/4=C/C(=O)CC[C@H]34)[C@@H]1CC[C@@]2(O)C#C", "P12-Ichikawa", 88),
    ("CC[S+](=O)([O-])Nc1ccc2c(c1)/C(=C(/Nc1ccc(CN3CCCCC3)cc1)c1ccccc1)C(=O)N2", "P12-Ichikawa", 30.7),
    ("[O-]C(=O)C/1=N/C(=O)NC(=O)N1", "P12-Ichikawa", 91.8),
    ("C[C@@H]1CCN(C(=O)CC#N)C[C@@H]1N(C)c1ncnc2[nH]ccc12", "P12-Ichikawa", 88.2),
    ("O=C(CCc1ccc(O)cc1)c1c(O)cc(O)cc1O", "P12-Ichikawa", 104),
]

Query cell viability on P12-Ichikawa for O=C(O)CCCCC(CCSCc1ccccc1)SCc1ccccc1 (stereo not given)
135

Query cell viability on P12-Ichikawa for CC1(CN2CCC(n3c(=O)[nH]c4ccccc43)CC2)OCc2ccccc2-n2cccc21 (stereo not given)
109

Query cell viability on P12-Ichikawa for O=C(Nc1nnc(-c2ccco2)o1)c1cc(-c2ccccc2)nc2ccccc12
119

Query cell viability on P12-Ichikawa for O=[N+]([O-])c1ncc[nH]1
74.1

Query cell viability on P12-Ichikawa for CC(C)(S)[C@@H](N)C(=O)O
121

----------
- Test system: NOMO1
- PROTOCOL SUMMARY: cell viability relative to DMSO control; higher = less cytotoxic
- APPLIED CONDITIONS: RPMI 5 mM glucose + 10% FBS; 48 h; 46.1 µM
// values below are reported cell viability
Number in %, nothing else.

# COMPOUND, ATTRIBUTE MEASURED, RESULT UNITS, MEASURED
records = [
    ("COc1cccc2c1C(=O)c1c(O)c3c(c(O)c1C2=O)C[C@@](O)(C(=O)CO)C[C@@H]3O[C@H]1C[C@H](N)[C@H](O[C@H]2CCCCO2)[C@H](C)O1", "cell viability", "%", 101),
    ("N[S+](=O)([O-])c1cc2c(cc1Cl)NC(C(Cl)Cl)N[S+]2(=O)[O-] (stereo not given)", "cell viability", "%", 110),
]

Now, please, on to the next compound.
Query cell viability on NOMO1 for CCN(CCO)CCCOc1ccc2c(Nc3cc(CC(=O)Nc4cccc(F)c4)[nH]n3)ncnc2c1
54

----------
- Tested on: P12-Ichikawa
- PROTOCOL SUMMARY: cell viability relative to DMSO control; higher = less cytotoxic
- APPLIED CONDITIONS: HPLM + 10% dialyzed FBS; 48 h; 1.71 µM
Entries whose cell viability is below 90% take condition met; entries at or above 90% take condition not met.

# COMPOUND, CAT
measured = [
    ("CC[C@]12CC[C@H]3[C@@H](CCC/4=C/C(=O)CC[C@H]34)[C@@H]1CC[C@@]2(O)C#C", "condition met"),
]

Dear colleague, could you confirm whether cell viability of ClC1=CC=C2N/C3=N/C(=O)CN3CC2=C1Cl falls below 90%? Thanks.
condition not met

Dear colleague, could you confirm whether cell viability of CC(C)=CCC/C(C)=C/CC/C(C)=C/CSc1ccccc1C(=O)O falls below 90%? Thanks.
condition met

Dear colleague, could you confirm whether cell viability of C=C1C(=O)[C@@]23C(CC[C@@H]1[C@H]2O)[C@@]12CO[C@]3(O)[C@@H](O)[C@@H]1C(C)(C)CC[C@@H]2O (some centres not stated) falls below 90%? Thanks.
condition not met

Dear colleague, could you confirm whether cell viability of C[C@]12Cc3cn[nH]c3C[C@@H]1CC[C@@H]1[C@@H]2CC[C@@]2(C)[C@H]1CC[C@]2(C)O falls below 90%? Thanks.
condition not met

Dear colleague, could you confirm whether cell viability of COc1cc(Nc2c(C#N)cnc3cc(OCCCN4CCN(C)CC4)c(OC)cc23)c(Cl)cc1Cl falls below 90%? Thanks.
condition not met
